Recorded pest or weed control at 500 g/ha for the following compounds
System: giant foxtail (Setaria faberii)
Experiment: Test A preemergence
Assay type: in vivo
Conditions: Setaria faberi, pre-emergence, 240 h, 500 g ai/ha, preemergence; 0 to 100 scale where 0 is no effect and 100 is complete control; read-out: Foxtail, Giant plant response rating

>  <compound>
O=C1NC[C@H](c2cccc(C(F)(F)F)c2)C1C(=O)Nc1ccccc1CO (stereo partly drawn) [Compound 1244]

>  <pest or weed control at 500 g/ha / %>
90

$$$$
>  <compound>
CCc1cc([C@H]2CN(C)C(=O)[C@@H]2C(=O)Nc2cccc(F)c2F)cs1 [Compound 1157]

>  <pest or weed control at 500 g/ha / %>
100

$$$$
>  <compound>
COc1ccc([C@H]2CN(C)C(=O)[C@@H]2C(=O)Nc2cccc(F)c2F)c(OC)c1 [Compound 1209]

>  <pest or weed control at 500 g/ha / %>
100

$$$$
